SPOT peptide array binding signal intensity by entry:
- assayed target: AgMyo5
- protocol text: SPOT peptide array binding signal intensity (averaged, normalized) (arbitrary units (background-subtracted, floor 0; scale differs between SH3 domains)); higher = stronger binding of the SH3 domain to the peptide
Simply state the number, no unit and no words.

Some binders with known SPOT peptide array binding signal intensity results, for comparison:
> print(dat)
            binder  experimental.result
1  STPQTMRQAPKRPDA                    6
2  AATTSTPPLPRRRAT                 12.5
3  TTNRGPPPLPPRANV                  394
4  NSMRPPLLIPAATTK                   15
5  SLSRRRFSLPSMPNV                    3
6  ERPKRRAPPPVPKKP                  359

SPOT peptide array binding signal intensity reading for `LKVTPGRRAPTISKI` : 5.5

SPOT peptide array binding signal intensity reading for `QLLNPNRRAPRRPLS` : 60.5

SPOT peptide array binding signal intensity reading for `LKQRFFLMFPKSIIW` : 0.5

SPOT peptide array binding signal intensity reading for `TYNRTAFQIPGDQSI` : 2.25
